Provenance of the data: paper PMC8658989

Tested on: Bacillus subtilis 3562
Experiment: Antimicrobial assay, agar/disc diffusion, B. subtilis
Assay type: cell-based
Conditions: 6 μL of 20 μM solution on 6 mm paper disc, 24 h
Non-standard residues stand in square brackets, D forms with d. Residues, ends and D or L forms follow the SMILES beside them. βAla = NCCC(=O)O
Please go through the items and note down their Inhibition zones size, Bacillus subtilis 3562.
Write the value in mm as a bare number.

Problem: Consider the compound shown here: CC(C)C[C@H](NC(=O)[C@H](CCCCN)NC(=O)CCNC(=O)[C@H](CC(C)C)NC(=O)[C@H](CCCCN)NC(=O)[C@H](CCCCN)NC(=O)CCNC(=O)[C@H](CC(C)C)NC(=O)[C@H](CCCCN)NC(=O)CCNC(=O)[C@H](CC(C)C)NC(=O)[C@@H](N)CCCCN)C(=O)NCCC(=O)N[C@@H](CCCCN)C(N)=O [Si5, (KLβ-AKLβ-AK)2-NH2] (H-KL[βAla]KL[βAla]KKL[βAla]KL[βAla]K-NH2) What is its recorded Inhibition zones size, Bacillus subtilis 3562?
Result: 11.16

Problem: Now this one: CC(C)C[C@H](NC(=O)[C@H](CCCCN)NC(=O)/C=C/c1ccc(O)c(O)c1)C(=O)N[C@@H](C)C(=O)N[C@@H](CCCCN)C(=O)N[C@@H](CC(C)C)C(=O)N[C@@H](C)C(=O)N[C@@H](CCCCN)C(=O)N[C@@H](CCCCN)C(=O)N[C@@H](CC(C)C)C(=O)N[C@@H](C)C(=O)N[C@@H](CCCCN)C(=O)N[C@@H](CC(C)C)C(=O)N[C@@H](C)C(=O)N[C@@H](CCCCN)C(N)=O
Result: 12.66

Problem: Now this one: CC(C)C[C@H](NC(=O)[C@H](CCCCN)NC(=O)CN1C(=O)c2cccc3cccc(c23)C1=O)C(=O)N[C@@H](C)C(=O)N[C@@H](CCCCN)C(=O)N[C@@H](CC(C)C)C(=O)N[C@@H](C)C(=O)N[C@@H](CCCCN)C(=O)N[C@@H](CCCCN)C(=O)N[C@@H](CC(C)C)C(=O)N[C@@H](C)C(=O)N[C@@H](CCCCN)C(=O)N[C@@H](CC(C)C)C(=O)N[C@@H](C)C(=O)N[C@@H](CCCCN)C(N)=O
Result: 13.50
